- Target of assay: T1, Bcl-w, Q92843
- T1 chain: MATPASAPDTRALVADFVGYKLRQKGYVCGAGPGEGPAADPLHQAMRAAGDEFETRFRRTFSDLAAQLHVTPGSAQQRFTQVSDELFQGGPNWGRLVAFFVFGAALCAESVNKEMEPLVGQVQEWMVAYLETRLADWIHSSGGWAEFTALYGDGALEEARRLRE
- Test method notes: peptide SPOT array, c-Myc-tagged receptor at 1 uM or 100 nM, anti-c-Myc-Cy3
Property name: SPOT signal as a fraction of Bim BH3's signal on the same receptor and array
# print the numeric value only

Exercise: State the recorded SPOT signal as a fraction of Bim BH3's signal on the same receptor and array for this entry: KSRLVQQSKALKELADELQERCQRPA [TRIM58]
Key: 0.29

Exercise: Try the binder LGRTGQVCLFLKRGADQHALDQEQRD [ACAP3]
Key: 0.11

Exercise: Try the binder LGHTGLACLFLKRGADLGARDSEGRD [ACAP1]
Key: 0.1

Exercise: Try the binder EQILAKIVELLKYSGDQLERKLKKDK [BCL2L14]
Key: 0.74
